Kindly state normalised percent inhibition for each of the entries shown.
# Tested on: Renilla luciferase (RLuc)
# protocol: normalised percent inhibition of luminescence (vs positive and negative controls); higher = stronger inhibition
# recorded.conditions: metal salt concentration 1 mM; screening conditions buffer
Output spec: scalar in %, unitless text.

Task item: Item under review: O=[N+]([O-])[O-].[Ag+] [silver nitrate] . Reported normalised percent inhibition?
Reply: 106

Task item: Item under review: CC#N.CC#N.CC#N.CC#N.F[B-](F)(F)F.[Cu+] [tetrakis(acetonitrile)copper(I) tetrafluoroborate] . Reported normalised percent inhibition?
Reply: 107

Task item: Item under review: [Cl][Pt-2]([Cl])([Cl])[Cl].[K+].[K+] [potassium tetrachloroplatinate(II)] . Reported normalised percent inhibition?
Reply: 95.3

Task item: Item under review: [Cl][Sn][Cl] [tin(II) chloride] . Reported normalised percent inhibition?
Reply: -5.29

Task item: Item under review: O=[N+]([O-])[O-].O=[N+]([O-])[O-].[Cd+2] [cadmium nitrate] . Reported normalised percent inhibition?
Reply: 68.6

Task item: Item under review: [Cl][Fe]([Cl])[Cl] [iron(III) chloride] . Reported normalised percent inhibition?
Reply: 75.5

Task item: Item under review: O=[N+]([O-])[O-].O=[N+]([O-])[O-].[Cu+2] [copper(II) nitrate] . Reported normalised percent inhibition?
Reply: 106

Task item: Item under review: [Cl][Fe][Cl] [iron(II) chloride] . Reported normalised percent inhibition?
Reply: 93.3

Task item: Item under review: O=[N+]([O-])[O-].O=[N+]([O-])[O-].[Pb+2] [lead(II) nitrate] . Reported normalised percent inhibition?
Reply: 2.9

Task item: Item under review: O=S(=O)([O-])[O-].[Fe+2] [iron(II) sulfate] . Reported normalised percent inhibition?
Reply: 96

Task item: Item under review: O=[N+]([O-])[O-].O=[N+]([O-])[O-].[Zn+2] [zinc nitrate] . Reported normalised percent inhibition?
Reply: 8.71

Task item: Item under review: O=[N+]([O-])[O-].O=[N+]([O-])[O-].O=[N+]([O-])[O-].[Ga+3] [gallium(III) nitrate] . Reported normalised percent inhibition?
Reply: -8.55

* * *

# System: Renilla luciferase (RLuc)
# protocol: normalised percent inhibition of luminescence (vs positive and negative controls); higher = stronger inhibition
# recorded.conditions: metal salt concentration 0.025 mM; 100 mM HEPES buffer
Kindly state normalised percent inhibition for each of the entries shown.
Output spec: scalar in %, unitless text.

Task item: Item under review: [Cl][Fe][Cl] [iron(II) chloride] . Reported normalised percent inhibition?
Reply: 16.3

Task item: Item under review: O=S(=O)([O-])[O-].[Fe+2] [iron(II) sulfate] . Reported normalised percent inhibition?
Reply: 28.6

Task item: Item under review: [Cl][Fe]([Cl])[Cl] [iron(III) chloride] . Reported normalised percent inhibition?
Reply: -1.73

Task item: Item under review: O=[N+]([O-])[O-].O=[N+]([O-])[O-].[Cd+2] [cadmium nitrate] . Reported normalised percent inhibition?
Reply: -16

Task item: Item under review: [Cl][Sn][Cl] [tin(II) chloride] . Reported normalised percent inhibition?
Reply: -15.8

* * *

# System: firefly luciferase (FLuc)
# protocol: normalised percent inhibition of luminescence (vs positive and negative controls); higher = stronger inhibition
# recorded.conditions: metal salt concentration 2.5 mM; 100 mM HEPES buffer
Kindly state normalised percent inhibition for each of the entries shown.
Output spec: scalar in %, unitless text.

Task item: Item under review: [Cl][Sn][Cl] [tin(II) chloride] . Reported normalised percent inhibition?
Reply: 63.9

Task item: Item under review: [Cl][Fe][Cl] [iron(II) chloride] . Reported normalised percent inhibition?
Reply: 100

Task item: Item under review: O=[N+]([O-])[O-].O=[N+]([O-])[O-].O=[N+]([O-])[O-].[Ga+3] [gallium(III) nitrate] . Reported normalised percent inhibition?
Reply: 99.5

Task item: Item under review: [Cl][Pt-2]([Cl])([Cl])[Cl].[K+].[K+] [potassium tetrachloroplatinate(II)] . Reported normalised percent inhibition?
Reply: 100

Task item: Item under review: O=[N+]([O-])[O-].O=[N+]([O-])[O-].[Zn+2] [zinc nitrate] . Reported normalised percent inhibition?
Reply: 100

Task item: Item under review: CC#N.CC#N.CC#N.CC#N.F[B-](F)(F)F.[Cu+] [tetrakis(acetonitrile)copper(I) tetrafluoroborate] . Reported normalised percent inhibition?
Reply: 100

Task item: Item under review: O.O.O.O.O.O.O.O=S(=O)([O-])[O-].[Mg+2] [magnesium sulfate] . Reported normalised percent inhibition?
Reply: -12.5

Task item: Item under review: O=[N+]([O-])[O-].O=[N+]([O-])[O-].[Cd+2] [cadmium nitrate] . Reported normalised percent inhibition?
Reply: 100

Task item: Item under review: O=[N+]([O-])[O-].[Ag+] [silver nitrate] . Reported normalised percent inhibition?
Reply: 100

Task item: Item under review: [Cl][Fe]([Cl])[Cl] [iron(III) chloride] . Reported normalised percent inhibition?
Reply: 100

Task item: Item under review: O=[N+]([O-])[O-].O=[N+]([O-])[O-].[Cu+2] [copper(II) nitrate] . Reported normalised percent inhibition?
Reply: 100

Task item: Item under review: O=[N+]([O-])[O-].O=[N+]([O-])[O-].[Pb+2] [lead(II) nitrate] . Reported normalised percent inhibition?
Reply: 101

Task item: Item under review: O=S(=O)([O-])[O-].[Fe+2] [iron(II) sulfate] . Reported normalised percent inhibition?
Reply: 100
